System: USA300 LAC
protocol.details: Checkerboard MIC assay with oxacillin
Type: cell-based, Staphylococcus aureus
condition.notes: USA300 LAC/oxacillin, at minimum sensitization concentration
Reported Sensitization fold by item:
Response field accepts a number only; no unit should be typed.

C[C@H]1[C@@H](c2cc(C(F)(F)F)cc(C(F)(F)F)c2)OC(=O)N1C(=O)CCc1cccc2c1OCCC2=O = 8
C[C@H]1[C@@H](c2cc(C(F)(F)F)cc(C(F)(F)F)c2)OC(=O)N1C(=O)CCn1ccc(=O)c2ccccc21 [Compound 17a] = 8
C[C@H]1[C@@H](c2cc(C(F)(F)F)cc(C(F)(F)F)c2)OC(=O)N1C(=S)NCc1cccc2ccccc12 = 8

[ask] Fill blank: measured Sensitization fold of the compound C[C@H]1[C@@H](c2cc(C(F)(F)F)cc(C(F)(F)F)c2)OC(=O)N1C(=O)SCc1cccc2ccccc12 is ____.
[reply] 8

[ask] GET /values?readout=Sensitization fold&item= C[C@H]1[C@@H](c2cc(C(F)(F)F)cc(C(F)(F)F)c2)OC(=O)N1C(=O)CCn1ccc(=O)c2cccnc21 [Compound 18a]
[reply] 8

[ask] Dear colleague, I am looking for the recorded Sensitization fold of the following compound: COc1cc(C(F)(F)F)cc([C@H]2OC(=O)N(C(=O)CCn3ccc(=O)c4cccnc43)[C@H]2C)n1 [Compound 18b]
[reply] 4

[ask] Field request: Sensitization fold | item: C[C@H]1[C@@H](c2cc(C(F)(F)F)cc(C(F)(F)F)c2)OC(=O)N1C(=O)Cc1cccc2ccccc12 [Tarocin A, reference compound]
[reply] 2

[ask] What does the record list as Sensitization fold for C[C@H]1[C@@H](c2cc(C(F)(F)F)cc(C(F)(F)F)c2)OC(=O)N1C(=O)CCN1CCCc2ccccc21 ?
[reply] 8

[ask] // lookup Sensitization fold for C[C@H]1[C@@H](c2cc(C(F)(F)F)cc(C(F)(F)F)c2)OC(=O)N1C(=O)CCN1CCOc2ccccc21
[reply] 4

[ask] // Sensitization fold lookup, key: C[C@H]1[C@@H](c2cc(C(F)(F)F)cc(C(F)(F)F)c2)OC(=O)N1C(=O)OCc1cccc2ccccc12
[reply] 8

###

System: USA300 LAC
protocol.details: Checkerboard MIC assay with oxacillin
Format: cell-based, Staphylococcus aureus
condition.notes: USA300 LAC/oxacillin; test range 0.03–32 μg/mL
Recorded Minimum sensitization concentration, one value per entry.
API: value field is a number in µg/mL; no unit string.

Guide cases for Minimum sensitization concentration, answers given:
C[C@H]1[C@@H](c2cc(C(F)(F)F)cc(C(F)(F)F)c2)OC(=O)N1C(=O)OCc1cccc2ccccc12 = 0.06
C[C@H]1[C@@H](c2cc(C(F)(F)F)cc(C(F)(F)F)c2)OC(=O)N1C(=O)CCN1CCCc2ccccc21 = 0.03
C[C@H]1[C@@H](c2cc(C(F)(F)F)cc(C(F)(F)F)c2)OC(=O)N1C(=O)SCc1cccc2ccccc12 = 0.06
C[C@H]1[C@@H](c2cc(C(F)(F)F)cc(C(F)(F)F)c2)OC(=O)N1C(=S)NCc1cccc2ccccc12 = 0.25

[ask] Tell me the measured Minimum sensitization concentration of COc1cc(C(F)(F)F)cc([C@H]2OC(=O)N(C(=O)CCn3ccc(=O)c4cccnc43)[C@H]2C)n1 [Compound 18b] , please.
[reply] 0.25

[ask] If you can, please state the reported Minimum sensitization concentration value of C[C@H]1[C@@H](c2cc(C(F)(F)F)cc(C(F)(F)F)c2)OC(=O)N1C(=O)Cc1cccc2ccccc12 [Tarocin A, reference compound] .
[reply] 0.06

[ask] I would be grateful if you could share the reported Minimum sensitization concentration for C[C@H]1[C@@H](c2cc(C(F)(F)F)cc(C(F)(F)F)c2)OC(=O)N1C(=O)CCn1ccc(=O)c2cccnc21 [Compound 18a] .
[reply] 0.03

###

Test system: HS663
protocol.details: Checkerboard MIC assay with imipenem
Type: cell-based, Staphylococcus aureus
condition.notes: HS663/imipenem, at minimum sensitization concentration
Here, each record is paired with measured Sensitization fold data.
Returns: the value as a bare number; no unit string appended.

Solved cases (3 shown):
C[C@H]1[C@@H](c2cc(C(F)(F)F)cc(C(F)(F)F)c2)OC(=O)N1C(=O)CCN1CCCc2ccccc21 = 8
C[C@H]1[C@@H](c2cc(C(F)(F)F)cc(C(F)(F)F)c2)OC(=O)N1C(=O)Cc1cccc2ccccc12 [Tarocin A, reference compound] = 2
C[C@H]1[C@@H](c2cc(C(F)(F)F)cc(C(F)(F)F)c2)OC(=O)N1C(=O)CCn1ccc(=O)c2cccnc21 [Compound 18a] = 2

[ask] Need Sensitization fold, item COc1cc(C(F)(F)F)cc([C@H]2OC(=O)N(C(=O)CCn3ccc(=O)c4cccnc43)[C@H]2C)n1 [Compound 18b]
[reply] 2

###

tgt: TarO (Staphylococcus aureus)
condition.notes: relative inhibition rate against the wild-type strain, OD600 at 20 h; n.a. = IC50 cannot be calculated within the test range
pIC50: −log10 of the molar value.
Criterion: pIC50 meeting or surpassing 5. Met: 1 (yes). Not met: 0 (no).

C[C@H]1[C@@H](c2cc(C(F)(F)F)cc(C(F)(F)F)c2)OC(=O)N1C(=O)CCN1CCCc2ccccc21 [Compound 10] = 1 (yes)
C[C@H]1[C@@H](c2cc(C(F)(F)F)cc(C(F)(F)F)c2)OC(=O)N1C(=O)SCc1cccc2ccccc12 [Compound 2] = 1 (yes)
C[C@H]1[C@@H](c2cccc(C(F)(F)F)c2)OC(=O)N1C(=O)NCc1cncc2ccccc12 [Tarocin A2, reference compound] = 0 (no)

Then there is this molecule:
[ask] pIC50 >= 5 for COc1cc(C(F)(F)F)cc([C@H]2OC(=O)N(C(=O)CCn3ccc(=O)c4ccccc43)[C@H]2C)n1 [Compound 17b] ?
[reply] 0 (no)
